- assay system: Recombinant full length human OGA enzyme (Homo sapiens)
- Construct: Recombinant full length human OGA enzyme was purchased from Origene
- Sequence (O60502 whole entry): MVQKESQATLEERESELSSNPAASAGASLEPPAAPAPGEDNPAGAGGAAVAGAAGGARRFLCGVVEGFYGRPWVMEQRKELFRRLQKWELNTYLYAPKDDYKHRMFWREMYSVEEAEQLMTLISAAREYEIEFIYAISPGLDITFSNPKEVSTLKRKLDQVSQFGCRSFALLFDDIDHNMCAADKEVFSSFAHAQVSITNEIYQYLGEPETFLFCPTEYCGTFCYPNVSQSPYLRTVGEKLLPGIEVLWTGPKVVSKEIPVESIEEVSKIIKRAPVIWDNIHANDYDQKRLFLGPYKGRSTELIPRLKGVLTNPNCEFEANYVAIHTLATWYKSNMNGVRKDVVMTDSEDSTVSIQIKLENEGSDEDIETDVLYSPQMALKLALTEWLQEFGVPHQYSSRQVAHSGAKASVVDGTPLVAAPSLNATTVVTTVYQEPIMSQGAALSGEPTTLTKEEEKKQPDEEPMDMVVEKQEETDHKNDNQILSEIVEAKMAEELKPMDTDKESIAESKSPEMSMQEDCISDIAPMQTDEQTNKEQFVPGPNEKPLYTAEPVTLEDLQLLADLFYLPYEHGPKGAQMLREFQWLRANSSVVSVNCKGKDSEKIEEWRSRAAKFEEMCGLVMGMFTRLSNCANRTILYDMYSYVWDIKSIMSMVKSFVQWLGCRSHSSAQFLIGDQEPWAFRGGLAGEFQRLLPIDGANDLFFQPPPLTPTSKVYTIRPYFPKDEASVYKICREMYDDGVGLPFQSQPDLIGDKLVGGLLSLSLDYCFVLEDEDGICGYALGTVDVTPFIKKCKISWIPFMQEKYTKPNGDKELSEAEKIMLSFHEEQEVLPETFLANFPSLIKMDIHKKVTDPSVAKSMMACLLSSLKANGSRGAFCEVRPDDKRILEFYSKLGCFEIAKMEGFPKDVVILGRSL
- method notes: OGA enzyme inhibition biochemical assay
- details: 1 nM OGA, 100 μM 4-MUGlcNAc (Km), pH 6.4, 90 minutes at room temperature, 10-point dose-response from 20 μM
Kindly supply the reported IC50 values for the records listed here.

I have this molecule here, CC(=O)Nc1nc(F)c(CN2C[C@H](Oc3cn4cccnc4n3)C[C@@H]2C)s1 , and I need its recorded IC50.
< 1 nM

Recorded IC50 of CC(=O)Nc1ncc(CN2C[C@H](Oc3cn4nc(C)cc4cn3)C[C@@H]2C)s1 , please.
< 1 nM

Which IC50 reading was recorded for the molecule CC(=O)Nc1nc(F)c(CN2C[C@H](Oc3ncnc4ccc(F)cc34)C[C@@H]2C)s1 ?
4.1 nM

I have this molecule here, CC(=O)Nc1nc(F)c(CN2C[C@H](Oc3ncnc4cccc(F)c34)C[C@@H]2C)s1 , and I need its recorded IC50.
< 1 nM

Consider the molecule shown here: CC(=O)Nc1nc(F)c(CN2C[C@H](Oc3nnc4cnccn34)C[C@@H]2C)s1 What is its recorded IC50?
2.6 nM

Would you mind telling me what IC50 value was observed for CC(=O)Nc1nc(F)c(CN2C[C@H](Oc3ccc4c(nnn4C)n3)C[C@@H]2C)s1 ?
< 1 nM

Given the molecule CC(=O)Nc1ncc(CN2C[C@H](Oc3ccn4ccnc4c3)C[C@@H]2C)s1 , what is its reported IC50?
< 1 nM

I would be grateful if you could share the reported IC50 for CC(=O)Nc1nc(F)c(CN2C[C@H](Oc3ncnc4c(F)cccc34)C[C@@H]2C)s1 .
< 1 nM
